Biological target: Estrogen receptor (Homo sapiens)
Sequence (whole entry): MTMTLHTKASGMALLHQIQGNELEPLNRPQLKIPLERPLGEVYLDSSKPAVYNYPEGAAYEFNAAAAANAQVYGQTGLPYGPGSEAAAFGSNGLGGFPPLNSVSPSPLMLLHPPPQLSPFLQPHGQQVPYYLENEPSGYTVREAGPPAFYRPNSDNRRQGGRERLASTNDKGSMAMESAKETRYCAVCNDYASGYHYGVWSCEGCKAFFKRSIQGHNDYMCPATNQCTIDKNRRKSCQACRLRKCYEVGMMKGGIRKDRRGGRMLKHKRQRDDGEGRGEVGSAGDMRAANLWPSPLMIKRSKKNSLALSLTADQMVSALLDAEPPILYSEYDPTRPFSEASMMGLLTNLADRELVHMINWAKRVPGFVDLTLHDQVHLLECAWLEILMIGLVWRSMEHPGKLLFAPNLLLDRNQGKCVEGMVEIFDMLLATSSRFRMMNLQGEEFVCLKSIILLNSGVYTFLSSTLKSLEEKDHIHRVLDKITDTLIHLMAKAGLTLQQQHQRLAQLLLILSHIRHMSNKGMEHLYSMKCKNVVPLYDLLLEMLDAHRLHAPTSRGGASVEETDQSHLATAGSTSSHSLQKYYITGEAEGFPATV
Experiment: Displacement of fluorescein-labeled estradiol from human recombinant ERalpha at 0.2 uM by fluorescence polarization assay
Kindly apply the following: met if Activity is less than 60%, not met in every other case.

Examples with answers:
C=C(CCCC)[C@@H](NC(=O)c1ccc(C(F)(F)F)cc1)c1ccccc1 : met
C=C(CCCC)[C@@H](NC(=O)c1cccs1)c1ccccc1 : not met
CCCC[C@@H]1C[C@H]1[C@@H](NC(=O)Cc1ccccc1)c1ccc(-c2ccccc2)cc1 : met
CCCC[C@@H]1C[C@@]1(C)[C@@H](NS(=O)(=O)c1cccc2cccnc12)c1ccc(-c2ccccc2)cc1 : met
CCCC[C@@H]1C[C@H]1[C@@H](NC(=O)c1ccco1)c1ccccc1 : not met

**Query** Below 60% on Activity? Entry CCCC[C@@H]1C[C@H]1[C@@H](NC(=O)c1ccco1)c1ccc(-c2ccccc2)cc1
**Result** met

**Query** Below 60% on Activity? Entry C=C(CCC)[C@@H](NC(=O)c1ccccc1Cl)c1ccccc1
**Result** not met

**Query** Below 60% on Activity? Entry CCC/C=C(\CCC)[C@@H](NS(=O)(=O)c1ccc(C(Cl)(Cl)Cl)cc1)c1ccccc1
**Result** met

**Query** Below 60% on Activity? Entry CCCC[C@@H]1C[C@H]1C(NC(=O)c1cccs1)c1ccc(C(F)(F)F)cc1 (single isomer, unassigned)
**Result** met

**Query** Below 60% on Activity? Entry CCCC[C@@H]1C[C@H]1[C@@H](NC(=O)c1cccs1)c1ccc(-c2ccccc2)cc1
**Result** met

**Query** Below 60% on Activity? Entry CCC/C=C(\CCC)[C@@H](NC(=O)c1cccs1)c1ccc(C(F)(F)F)cc1
**Result** met

**Query** Below 60% on Activity? Entry CCC[C@@H]1C[C@@]1(CCC)[C@@H](NC(=O)c1ccco1)c1ccc(C(Cl)(Cl)Cl)cc1
**Result** met

**Query** Below 60% on Activity? Entry CCCC[C@@H]1C[C@H]1[C@@H](NC(=O)c1ccc(C(F)(F)F)cc1)c1ccc(C(=O)OC)cc1
**Result** met

**Query** Below 60% on Activity? Entry CCC/C=C(\CCC)[C@@H](NC(=O)C(C)(C)C)c1ccc(C(=O)OC)cc1
**Result** met

**Query** Below 60% on Activity? Entry CCC/C=C(\CCC)[C@@H](NC(=O)c1ccc(C(=O)OC)cc1)c1ccc(C(=O)OC)cc1
**Result** met

**Query** Below 60% on Activity? Entry CCCC[C@@H]1C[C@H]1C(NC(=O)c1ccco1)c1ccc(C(=O)OC)cc1 (single isomer, unassigned)
**Result** not met
